test: folding enthalpy; higher = less favourable; fluorescence melt of hairpins on a sequencing array, two-state fit; conditions: sodium 0.088 M
The entries below are paired with their reported folding enthalpy.
I only need the number, in kcal/mol, no unit after it.

The examples below pair each entry with its known result.
- chain: "GATCTTTTAAAAGATC ((((((....))))))"
  folding enthalpy, kcal/mol: -39.2
- chain: "GATCGACAGGTCGATC ((((((....))))))"
  folding enthalpy, kcal/mol: -39.1
- chain: "GGTTCAGGAAACTGAGCC ((.((((....)))).))"
  folding enthalpy, kcal/mol: -30.2
- chain: "GGTTTATCGAAAGATACC (((..(((....))))))"
  folding enthalpy, kcal/mol: -12.3
- chain: "GTCCAAGGAAACTTAGAC (((.(((....))).)))"
  folding enthalpy, kcal/mol: -13.7
- chain: "GGTTAGCGAAAGCTCACC (((.(((....))).)))"
  folding enthalpy, kcal/mol: -26.6
- chain: "GCAGCGCGAAAGCTTTGC (((..((....))..)))"
  folding enthalpy, kcal/mol: -16.7
- chain: "GCCAACGAAAGTTTGGGC ((((((....)))..)))"
  folding enthalpy, kcal/mol: -26.9
- chain: "GCAAGTGGAAACACTCGC ((.((((....)))).))"
  folding enthalpy, kcal/mol: -25.4
- chain: "TGTATGAAAATACA (((((....)))))"
  folding enthalpy, kcal/mol: -11

Prompt: Quick one: folding enthalpy for GCGATCCCGAAAGGGCGC (((..(((....)))))) ?
Completion: -20.6

Prompt: Find the recorded folding enthalpy belonging to GCTGTCGGAAACGGCAGC ((((.((....)).)))) and report it.
Completion: -47.7

Prompt: What value of folding enthalpy has been recorded for this entry: GCGCGGCGAAAGCCCGGC ((..(((....)))..))
Completion: -12.8

Prompt: Which folding enthalpy value is on record for GGCAATCGAAAGATCGCC (((.(((....))).))) ?
Completion: -34.7

Prompt: Recorded folding enthalpy of GGGAAGGGAAACCCTCCC ((((.((....)).)))) , please.
Completion: -28.1

Prompt: Name the recorded folding enthalpy for GATACCCCGAAAGGGATC (((..(((....)))))) .
Completion: -12.4

Prompt: Fill blank: measured folding enthalpy of the sequence GTGAGGGGAAACTCTCGC (.(((.(....).))).) is ____.
Completion: -24.9

Prompt: Could you share which folding enthalpy value was measured for GTAGAGCGAAAGCTTTAC (((.(((....))).))) ?
Completion: -24.4

Prompt: Record request: folding enthalpy value, item GCCGGTCGAAAGACAGGC (((.(((....))).)))
Completion: -41.7

Prompt: Need folding enthalpy, item GCTGGGCGAAAGCGAAGC (((..((....))..)))
Completion: -20

Prompt: Dear colleague, I am looking for the recorded folding enthalpy of the following sequence: TACATGAAAATGTA (((((....)))))
Completion: -12.7

Prompt: Look up folding enthalpy: GGTTGAGGAAACTCAGCC ((.((((....)))).))
Completion: -33.4

Prompt: # get_value(readout='folding enthalpy', item= GCGCTCGAAAGAGCTCGC ((((((....)))..))) )
Completion: -14.4

Prompt: So what does the record say about folding enthalpy for GTGTGCGGAAACGCACGC (.(((((....))))).) ?
Completion: -16.4

Prompt: Value lookup for folding enthalpy; key = GATCGTCTCCACGATC ((((((....))))))
Completion: -38.1
